Tested on: Abp1 PPIs
assay: DHFR-PCA of Abp1 SH3-swapped baits (Fig. 2B-D, S2C, S2F)
Type: cell-based, Saccharomyces cerevisiae
protocolConditions: number of PPIs, difference; Abp1 SH3-swapped with the listed SH3; Fig2D,S2F
propertyName: SH3-dependent PPIs - SH3-dependent PPIs gained by Abp1
No unit in the answer, please; the number alone is enough.

Field request: SH3-dependent PPIs - SH3-dependent PPIs gained by Abp1 | item: LSB1 (protein, UniProt P53281 2-241, looked up) LAS seventeen-binding protein …: SASLVNRSLKNIRNELEFLKESNVISGDIFELINSKLPEKWDGNQRSPQNADTEEYVEALYDFEAQQDGDLSLKTGDKIQVLEKISPDWYRGKSNNKIGIFPANYVKPAFTRSASPKSAEAASSSTVSRPSVPPPSYEPAASQYPSQQVSAPYAPPAGYMQAPPPQQQQAPLPYPPPFTNYYQQPQQQYAPPSQQAPVEAQPQQSSGASSAFKSFGSKLGNAAIFGAGSAIGSDIVNSIF 8

FYI, the data here is from paper PMC7954794.
